System: U2OS
Test: Multiplex assay against U2OS
Assay type: toxicity, cell-based
Conditions: human, 24 h, 1 µM, compound concentration 1 uM, replicate 1
test_readout: Population Healthy Nuclei (%)

>>> value("Cc1ccc(NC(=O)Nc2cc(C(F)(F)F)ccc2F)cc1Nc1ccc2c(c1)NC(=O)/C2=C\\c1ccc[nH]1")
52
>>> value("CC(Cc1ccc(O)c(O)c1)C(C)Cc1ccc(O)c(O)c1 (stereo unspecified) [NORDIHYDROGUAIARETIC ACID]")
78
>>> value("CC(C)c1cc(Nc2nc(N3CCC[C@H](N)C3)ncc2C(N)=O)cc(C(C)C)n1")
61
>>> value("CC[C@H](Nc1ncnc2[nH]cnc12)c1nc2cccc(F)c2c(=O)n1-c1ccccc1")
85
>>> value("Oc1cccc(-c2nc(N3CCOCC3)c3oc4ncccc4c3n2)c1")
61
>>> value("N#CCNC(=O)c1ccc(-c2ccnc(Nc3ccc(N4CCOCC4)cc3)n2)cc1")
78

---

Tested on: HEK-293T
Test: Multiplex assay against HEK293T
Format: toxicity, cell-based
Conditions: human, 24 h, 10 µM, compound concentration 10 uM, replicate 1
Mark Met for reported Total Cell Count of 400 or greater; mark Not met for anything smaller.

>>> discrete_label("Cc1ccc(S(=O)(=O)NC2c3ccccc3Oc3ccccc32)cc1")
"Not met"
>>> discrete_label("Cc1ccc(NC(=O)Nc2cc(C(F)(F)F)ccc2F)cc1Nc1ccc2c(c1)NC(=O)/C2=C\\c1ccc[nH]1")
"Met"
>>> discrete_label("NC(=O)c1ccc2nc(-c3ccc(C4(N)CCC4)cc3)c(-c3ccccc3)n2n1")
"Met"
>>> discrete_label("CCCCCNC(=N)N/N=C/c1c[nH]c2ccc(OC)cc12.O=C(O)/C=C\\C(=O)O [TEGASEROD MALEATE]")
"Not met"
>>> discrete_label("CN(c1cc(C(F)(F)F)nc(OCCC(=O)O)n1)c1cccc2c1CCC2")
"Not met"
>>> discrete_label("CN1C(=O)[C@@H](NC(=O)c2cc3ccccc3[nH]2)N=C(c2ccccc2)c2ccccc21 [DEVAZEPIDE]")
"Not met"
>>> discrete_label("Cl.NC[C@@H]1O[C@H](C23CC4CC(CC(C4)C2)C3)Cc2c1ccc(O)c2O")
"Not met"
>>> discrete_label("CC(C)[C@H](CO)Nc1nc(Nc2cccc(Cl)c2)c2ncn(C(C)C)c2n1")
"Not met"
>>> discrete_label("CC(C)c1cc(Nc2nc(N3CCC[C@H](N)C3)ncc2C(N)=O)cc(C(C)C)n1")
"Not met"
>>> discrete_label("CC(/C=C1\\SC(=S)N(CCCC(=O)Nc2ccc(C(=O)O)c(O)c2)C1=O)=C\\c1ccccc1")
"Not met"
>>> discrete_label("CC[C@H](Nc1ncnc2[nH]cnc12)c1nc2cccc(F)c2c(=O)n1-c1ccccc1")
"Met"
>>> discrete_label("Oc1cccc(-c2nc(N3CCOCC3)c3oc4ncccc4c3n2)c1")
"Not met"
>>> discrete_label("Cl.Cn1c2c(c3ccc(Cl)c(Cl)c31)C(C#N)C1(CCNCC1)NC2=O (stereo not given)")
"Met"
>>> discrete_label("c1ccc(-c2oc3ncnc(NC[C@@H]4CCCO4)c3c2-c2ccccc2)cc1")
"Not met"
>>> discrete_label("N#Cc1cccc(C(=O)Nc2cc(-c3ccccc3)nn2-c2ccccc2)c1")
"Not met"
>>> discrete_label("CC[C@@H]1C(=O)N(C)c2cnc(Nc3ccc(C(=O)NC4CCN(C)CC4)cc3OC)nc2N1C1CCCC1")
"Met"
>>> discrete_label("CCOc1ccn(-c2ccc(F)cc2)c(=O)c1C(=O)Nc1ccc(Oc2ccnc(N)c2Cl)c(F)c1")
"Met"
>>> discrete_label("C=CC(=O)Nc1cc(-n2c(=O)ccc3cnc4ccc(-c5ccc(NS(C)(=O)=O)cc5)cc4c32)ccc1C")
"Not met"
